Provenance of the data: PubChem BioAssay

Experiment description: E. coli DRC41 culture turbidity changes, primary screen, E. coli filamentation inducer project, strain DRC41, OD650, 48 h (AID 1152);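 further: E. coli MC1000 strain DRC41 lacking acrAB efflux pump and sulA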
Particulars: E. coli DRC41 (acrAB sulA), higher = more signal, called active from +8 up or from −8 down
I'd appreciate it if you could supply z-score values for the items below.
Simply state the number, no unit and no words.

Could you share which z-score value was measured for `CCCC[C@@H]1C[C@H]1[C@@H](NC(=O)c1cccs1)c1ccc(C(F)(F)F)cc1` ?
-2.61

Try this compound next: `C=C(COC)/C(=C/C[C@H](OC(=O)c1ccncc1)c1ccccc1OCCO)c1cnc2ccccc2c1`
0.657

Try this compound next: NC(=O)N1C(=O)C2C(C1=O)C1C=C(CCCO)C2C(c2cccs2)N1Cc1cccc(OC(F)(F)F)c1 (configuration not stated)
-0.19

Try this compound next: C[C@@H]1NC(=O)[C@@]23C(=O)N[C@@H](Cc4ccccc4)C2[C@H](C)[C@@]2(C)O[C@H]2C3/C=C/C/C=C\CNC(=O)[C@@H]2CCCN2C1=O (some centres not stated)
-0.906

Try this compound next: O=C1C2C=CC(C(O)c3ccccc3)N(Nc3ccccc3F)C2C(=O)N1c1ccccc1 (configuration not stated)
0.0394

Try this compound next: `O=C1O[C@@H](c2ccccc2)[C@@H](c2ccccc2)N2[C@@H](c3ccccc3OCCO)[C@]3(C(=O)Nc4ccc(C#CCCO)cc43)[C@@H](C(=O)N3CCCCCCC3)[C@H]12`
-0.723

Try this compound next: `CN(C)CCCNC(=O)[C@@H]1c2ccccc2C(=O)N(Cc2ccccc2Cl)[C@H]1c1ccc(CO)cc1`
0.681

* * *

Experiment description: small-molecule microarray binders of probe aWnt5a, primary screen, biochemical, biotinylated probe, 635/667 nm fluorescence (AID 1113);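 further: score merges 667 nm fluorescence intensity with signal-to-noise per printed feature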
Particulars: higher = more signal
Readout: composite z-score
Simply state the number, no unit and no words.

Could you share which composite z-score value was measured for `C[N+](C)(C)CCCCCCNC(=O)[C@H]1C[C@H]2C(=O)NCC(=O)N2[C@H]1c1ccc(O)cc1` ?
-0.0846

Try this molecule next: `COCCCNC(=O)[C@]1(CCS(=O)(=O)c2ccccc2)N=C(c2ccc(OCCCO)cc2)O[C@@H]1c1ccccc1CN=[N+]=[N-]`
0.392

Try this molecule next: `COc1ccc([Si](C)(C)[C@@H]2[C@@H](CC(=O)N3Cc4ccccc4C[C@H]3CO)O[C@]3(C(=O)N(C)c4ccccc43)[C@H]2C)cc1`
0.0102

Try this molecule next: `CN(C)C(=O)[C@@]1(Cc2ccccc2CN=[N+]=[N-])N=C(c2ccc(OCCCO)cc2)O[C@H]1c1ccccc1CN=[N+]=[N-]`
0.0655

Try this molecule next: `COCCOC(=O)N1C(=O)[C@@]2(c3cc(C#CC4=CCCCC4)ccc31)[C@H](C(=O)N1CCCCCCC1)[C@H]1C(=O)O[C@H](c3ccccc3)[C@H](c3ccccc3)N1[C@@H]2c1ccc(O)cc1`
-0.001

Try this molecule next: C=CCC(OC(C)=O)[C@@H]1[C@@H](N(Cc2cccc3ccccc23)C(=O)Cc2ccc(F)cc2)c2cc(OCCCO)ccc2N1C(=O)c1ccc2ccccc2n1 (stereo partly specified)
-0.18

* * *

Target desc: Fibroblast growth factor 10 (Homo sapiens) (UniProt O15520)
Sequence (O15520 whole entry, looked up): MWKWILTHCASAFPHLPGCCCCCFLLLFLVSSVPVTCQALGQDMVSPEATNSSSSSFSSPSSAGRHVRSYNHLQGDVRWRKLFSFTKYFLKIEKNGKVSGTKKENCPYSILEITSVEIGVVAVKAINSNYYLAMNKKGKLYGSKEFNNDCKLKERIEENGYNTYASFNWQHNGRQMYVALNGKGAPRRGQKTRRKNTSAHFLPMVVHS
Experiment description: FGF10 binders on small-molecule microarrays, primary screen, biochemical, small-molecule microarray, 635 nm fluorescence (AID 1102)
Particulars: FGF10 binding, fluorescence 635 nm, higher = more signal
Readout: composite z-score
Simply state the number, no unit and no words.

Enter reported composite z-score observed with Fibroblast growth factor 10 (Homo sapiens) (UniProt O15520) for `COCCOC(=O)N1C(=O)[C@@]2(c3cc(C#Cc4ccc(OC)cc4)ccc31)[C@H](C(=O)Nc1nc3ccccc3s1)[C@H]1C(=O)O[C@H](c3ccccc3)[C@H](c3ccccc3)N1[C@@H]2c1ccc(OCCO)cc1`
1.37

Try this compound next: `COC(=O)[C@@]1(Cc2ccc(F)cc2)[C@H]2c3cc(C(=O)N(C)C)n(Cc4cc(F)cc5c4OCOC5)c3C[C@H]2CN1C(=O)c1ccccc1`
0.87

Try this compound next: `CC(C)(C)OC(=O)CC[C@@]1(C(=O)NCc2ccccc2)N=C(c2ccc(OCCCO)cc2)O[C@@H]1c1ccccc1N=[N+]=[N-]`
1.39

Try this compound next: CN1C(=O)C2C=CC(C(O)C#Cc3ccccc3)N(Nc3ccccc3)C2C1=O (centres undefined)
1.33

Try this compound next: CCCCN1CC=CC23O[C@@H]4/C=C\CCC(C)OC(=O)C4[C@H]2C(=O)N(C(CO)C(C)C)[C@@H]3C1=O (some centres undefined)
0.384

Try this compound next: `CCCCO[C@H]1C[C@H]2C(I)=C[C@@H]1C(=O)[C@]21CO1`
0.104

Try this compound next: `C=CCN1C(=O)[C@@]2(O[C@@H](CCn3cc([C@H](O)c4ccccc4)nn3)[C@H]([Si](C)(C)c3ccc(OC)cc3)[C@H]2C)c2cc(N3CCC3=O)ccc21`
0.216

Try this compound next: CC(C)(C)N1CC=CC23O[C@@H]4C=CCCOC(=O)C4[C@H]2C(=O)N(CCO)[C@@H]3C1=O (some centres undefined)
-0.385

Try this compound next: `COC(=O)[C@@]1(Cc2ccc(F)cc2)[C@H]2c3cc(C(=O)N4CCCC4)n(CCc4ccc(O)c(O)c4)c3C[C@H]2CN1C(=O)c1ccccc1`
-0.206

Try this compound next: OCCCC1=CC(c2ccc(CN3CCCC3)cc2)N(Cc2sc3ccccc3c2Cl)CC1 (centres undefined)
1.03

Try this compound next: `Cc1ccc(S[C@]2(C(=O)NCCCN(C)C)CC(=O)N(C3CCCCC3)[C@@H]2c2ccc(CO)cc2)cc1`
-0.89

Try this compound next: `CCOC(=O)C[C@H]1[C@H](OC(=O)Cc2ccc3c(c2)OCO3)[C@@H](NC(=O)CC(C)C)c2cc(OCCCO)ccc2N1C(=O)Cc1ccc(OC)cc1`
0.139

Try this compound next: `Cc1ccc(S[C@]2(C(=O)O)CC(=O)N(C3Cc4ccccc4C3)[C@@H]2c2ccc(CO)cc2)cc1`
0.0926

Try this compound next: `O=C1O[C@H](c2ccccc2)[C@H](c2ccccc2)N2[C@H]1[C@@H](C(=O)NC[C@H](O)c1ccccc1)[C@]1(C(=O)Nc3ccc(C#CCCO)cc31)[C@H]2c1ccc(OCCO)cc1`
0.575
